Target: T1, human G-CSFR expressed on cells (Homo sapiens, UniProt Q99062 25-836)
T1 sequence: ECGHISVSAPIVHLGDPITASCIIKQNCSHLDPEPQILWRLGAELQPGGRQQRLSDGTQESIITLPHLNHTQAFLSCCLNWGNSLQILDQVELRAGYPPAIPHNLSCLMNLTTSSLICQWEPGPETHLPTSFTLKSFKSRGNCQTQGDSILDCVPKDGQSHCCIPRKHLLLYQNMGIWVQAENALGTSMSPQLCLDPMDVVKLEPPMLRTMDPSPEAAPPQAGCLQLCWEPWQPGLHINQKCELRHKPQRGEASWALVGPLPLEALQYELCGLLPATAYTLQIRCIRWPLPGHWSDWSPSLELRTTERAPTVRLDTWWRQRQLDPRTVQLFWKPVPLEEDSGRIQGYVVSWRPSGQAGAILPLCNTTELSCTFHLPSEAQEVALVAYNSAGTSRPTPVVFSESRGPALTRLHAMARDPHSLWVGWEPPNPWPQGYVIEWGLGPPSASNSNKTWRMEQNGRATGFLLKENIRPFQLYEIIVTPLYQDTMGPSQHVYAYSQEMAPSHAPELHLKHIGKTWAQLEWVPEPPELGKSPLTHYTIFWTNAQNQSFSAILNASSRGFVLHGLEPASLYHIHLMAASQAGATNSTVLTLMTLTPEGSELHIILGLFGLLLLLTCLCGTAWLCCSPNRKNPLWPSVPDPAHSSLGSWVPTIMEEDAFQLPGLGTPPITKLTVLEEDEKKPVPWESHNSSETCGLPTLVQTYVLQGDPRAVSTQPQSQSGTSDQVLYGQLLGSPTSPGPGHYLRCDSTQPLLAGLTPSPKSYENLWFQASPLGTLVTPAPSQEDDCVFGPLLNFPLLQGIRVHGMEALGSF
Experiment: cell-based or functional assay
value kind: IC50 (nM), inhibition of G-CSF-mediated proliferation of BaF3 cells
Report the value in nM with no unit label.

binder: C1.2G (germlined C1.2), human IgG4 (antibody, V domains shown, Human IgG4/kappa; also called C1.2 germline mAb; C1.2G (human IgG4)) VH: EVQLLESGGGLVQPGGSLRLSCAASGFTFSLYWMGWVRQAPGKGLEWVSSISSSGGVTPYADSVKGRFTISRDNSKNTLYLQMNSLRAEDTAVYYCAKLGELGWFDPWGQGTLVTVSS VL: DIQMTQSPSSLSASVGDRVTITCRASQGISSYLNWYQQKPGKAPKLLIYYASNLQNGVPSRFSGSGSGTDFTLTISSLQPEDFATYYCQQSYSTPLTFGGGTKVEIK
measured result: 0.32

binder: C1.2G-1000 (antibody, human IgG4, V domains shown, also called antibody 1000) VH: EVQLLESGGGLVQPGGSLRLSCAASGFTFSLYWMGWVRQAPGKGLEWVSSISSSGGVTPYADSVKGRFTISRDNSKNTLYLQMNSLRAEDTAVYYCAKLGELGQMMYWGQGTLVTVSS VL: DIQMTQSPSSLSASVGDRVTITCRASQGISSYLNWYQQKPGKAPKLLIYYASNLQNGVPSRFSGSGSGTDFTLTISSLQPEDFATYYCQQSWMYAHMFGGGTKVEIK
measured result: 0.34

Would you kindly look at the next entry?
Please give the measured IC50 (nM), inhibition of G-CSF-mediated proliferation of BaF3 cells for this binder: C1.2G-56 (antibody, human IgG4, V domains shown, HCDR3 wt (VH of C1.2G); also called antibody 56) VH: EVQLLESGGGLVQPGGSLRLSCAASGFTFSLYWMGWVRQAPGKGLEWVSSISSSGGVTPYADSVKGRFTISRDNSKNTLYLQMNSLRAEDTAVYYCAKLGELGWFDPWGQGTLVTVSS VL: DIQMTQSPSSLSASVGDRVTITCRASQGISSYLNWYQQKPGKAPKLLIYYASNLQNGVPSRFSGSGSGTDFTLTISSLQPEDFATYYCQQSYMYPIKFGGGTKVEIK
0.22
